Collected IC50 values appear next to each entry.
assay: Cytotoxicity against African green monkey Vero cells; format: toxicity, cell-based; conditions: African green monkey (Chlorocebus sabaeus)
readout type: IC50

INSERT INTO assay_data (compound, measurement) VALUES
  ('C/C=C/C[C@@H]1NC(=O)[C@H](CC(C)C)N2C(=O)[C@H](CC(C)[C@H]2OC)N(C)C(=O)[C@H](C)NC(=O)[C@H](Cc2ccc(OC(C)=O)c([N+](=O)[O-])c2)NC(=O)[C@H](CC(C)C)N(C)C(=O)[C@H](Cc2cn(C(C)(C)[C@H]3CO3)c3ccccc23)NC1=O (stereo partly drawn)', '> 100 µM'),
  ('C/C=C/C[C@@H]1NC(=O)[C@H](CC(C)C)N2C=C(C)C[C@@H](C2=O)N(C)C(=O)[C@H](C)NC(=O)[C@H](Cc2ccc(OC(=O)c3ccccc3)c([N+](=O)[O-])c2)NC(=O)[C@H](CC(C)C)N(C)C(=O)[C@H](Cc2cn(C(C)(C)[C@H](O)CCl)c3ccccc23)NC1=O', '> 100 µM'),
  ('C/C=C/C[C@@H]1NC(=O)[C@H](CC(C)C)N2C(=O)[C@H](C[C@@H](C)[C@H]2OCC)N(C)C(=O)[C@H](C)NC(=O)[C@H](Cc2ccc(O)c([N+](=O)[O-])c2)NC(=O)[C@H](CC(C)C)N(C)C(=O)[C@H](Cc2cn(C(C)(C)[C@H](O)CCl)c3ccccc23)NC1=O', '> 10 µM');

====

assay: Binding affinity to full length Mycobacterium tuberculosis ClpC1 assessed as dissociation constant by SPR analysis
Collected Kd values appear next to each entry.
readout type: Kd (nM)

INSERT INTO results (molecule, readout_type, uom, measurement) VALUES
  ('C/C=C/C[C@@H]1NC(=O)[C@H](CC(C)C)N2C(=O)[C@H](C[C@@H](C)[C@@H]2OCCCC)N(C)C(=O)[C@H](C)NC(=O)[C@H](Cc2ccc(O)c([N+](=O)[O-])c2)NC(=O)[C@H](CC(C)C)N(C)C(=O)[C@H](Cc2cn(C(C)(C)[C@H](O)CCl)c3ccccc23)NC1=O', 'Kd', 'nM', 720),
  ('C/C=C/C[C@@H]1NC(=O)[C@H](CC(C)C)N2C=C(C)C[C@@H](C2=O)N(C)C(=O)[C@H](C)NC(=O)[C@H](Cc2ccc(OC(=O)c3ccccc3)c([N+](=O)[O-])c2)NC(=O)[C@H](CC(C)C)N(C)C(=O)[C@H](Cc2cn(C(C)(C)[C@@H](CCl)OC(=O)c3ccccc3)c3ccccc23)NC1=O', 'Kd', 'nM', 1100),
  ('C/C=C/C[C@@H]1NC(=O)[C@H](CC(C)C)N2C(=O)[C@H](CC(C)[C@H]2OC(C)=O)N(C)C(=O)[C@H](C)NC(=O)[C@H](Cc2ccc(OC(C)=O)c([N+](=O)[O-])c2)NC(=O)[C@H](CC(C)C)N(C)C(=O)[C@H](Cc2cn(C(C)(C)[C@H]3CO3)c3ccccc23)NC1=O (stereo partly specified)', 'Kd', 'nM', 16),
  ('C/C=C/C[C@@H]1NC(=O)[C@H](CC(C)C)N2C(=O)[C@H](C[C@@H](C)[C@H]2OCCCC)N(C)C(=O)[C@H](C)NC(=O)[C@H](Cc2ccc(O)c([N+](=O)[O-])c2)NC(=O)[C@H](CC(C)C)N(C)C(=O)[C@H](Cc2cn(C(C)(C)[C@H](O)CCl)c3ccccc23)NC1=O', 'Kd', 'nM', 170),
  ('C/C=C/C[C@@H]1NC(=O)[C@H](CC(C)C)N2C(=O)[C@H](C[C@@H](C)[C@H]2OCC)N(C)C(=O)[C@H](C)NC(=O)[C@H](Cc2ccc(O)c([N+](=O)[O-])c2)NC(=O)[C@H](CC(C)C)N(C)C(=O)[C@H](Cc2cn(C(C)(C)[C@H](O)CCl)c3ccccc23)NC1=O', 'Kd', 'nM', 140),
  ('C/C=C/C[C@@H]1NC(=O)[C@H](CC(C)C)N2C(=O)[C@H](CC(C)[C@H]2OC)N(C)C(=O)[C@H](C)NC(=O)[C@H](Cc2ccc(OC(C)=O)c([N+](=O)[O-])c2)NC(=O)[C@H](CC(C)C)N(C)C(=O)[C@H](Cc2cn(C(C)(C)[C@H](O)CCl)c3ccccc23)NC1=O (stereo partly specified)', 'Kd', 'nM', 42),
  ('C/C=C/C[C@@H]1NC(=O)[C@H](CC(C)C)N2C(=O)[C@H](CC(C)[C@H]2OC)N(C)C(=O)[C@H](C)NC(=O)[C@H](Cc2ccc(O)c([N+](=O)[O-])c2)NC(=O)[C@H](CC(C)C)N(C)C(=O)[C@H](Cc2cn(C(C)(C)[C@H](O)CCl)c3ccccc23)NC1=O (stereo partly specified)', 'Kd', 'nM', 96),
  ('C/C=C/C[C@@H]1NC(=O)[C@H](CC(C)C)N2C=C(C)C[C@@H](C2=O)N(C)C(=O)[C@H](C)NC(=O)[C@H](Cc2ccc(O)c([N+](=O)[O-])c2)NC(=O)[C@H](CC(C)C)N(C)C(=O)[C@H](Cc2cn(C(C)(C)[C@H](O)CBr)c3ccccc23)NC1=O', 'Kd', 'nM', 350),
  ('C/C=C/C[C@@H]1NC(=O)[C@H](CC(C)C)N2C=C(C)C[C@@H](C2=O)N(C)C(=O)[C@H](C)NC(=O)[C@H](Cc2ccc3ocnc3c2)NC(=O)[C@H](CC(C)C)N(C)C(=O)[C@H](Cc2cn(C(C)(C)[C@H](O)CCl)c3ccccc23)NC1=O', 'Kd', 'nM', 430),
  ('C/C=C/C[C@@H]1NC(=O)[C@H](CC(C)C)N2C(=O)[C@H](CC(C)[C@H]2O)N(C)C(=O)[C@H](C)NC(=O)[C@H](Cc2ccc(O)c([N+](=O)[O-])c2)NC(=O)[C@H](CC(C)C)N(C)C(=O)[C@H](Cc2cn(C(C)(C)[C@H]3CO3)c3ccccc23)NC1=O (mixture of isomers)', 'Kd', 'nM', 110),
  ('C/C=C/C[C@@H]1NC(=O)[C@H](CC(C)C)N2C(=O)[C@H](C[C@H](C)[C@@H]2OCCCC)N(C)C(=O)[C@H](C)NC(=O)[C@H](Cc2ccc(O)c([N+](=O)[O-])c2)NC(=O)[C@H](CC(C)C)N(C)C(=O)[C@H](Cc2cn(C(C)(C)[C@H](O)CCl)c3ccccc23)NC1=O', 'Kd', 'nM', 29);
